Data origin: paper PMC9352680

Some binders, each annotated with its measured pKd.
Target: T1, PUF4 RNA-binding domain (Saccharomyces cerevisiae, UniProt P25339 537-888)
T1 sequence: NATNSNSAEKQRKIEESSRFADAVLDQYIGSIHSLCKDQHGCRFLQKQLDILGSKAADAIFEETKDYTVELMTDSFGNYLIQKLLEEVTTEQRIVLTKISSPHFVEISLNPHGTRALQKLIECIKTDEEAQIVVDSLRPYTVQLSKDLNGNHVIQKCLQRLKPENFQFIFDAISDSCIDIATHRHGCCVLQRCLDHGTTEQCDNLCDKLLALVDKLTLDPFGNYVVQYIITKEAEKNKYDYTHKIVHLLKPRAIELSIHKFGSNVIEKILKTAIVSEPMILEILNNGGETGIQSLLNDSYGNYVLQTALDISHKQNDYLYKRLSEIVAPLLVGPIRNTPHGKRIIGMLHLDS
Assay: Mg; RNA-MaP; 20 mM Na-HEPES pH 7.4, 30 mM KOAc, 0.75 mM MgCl2, 0.1% Tween-20, 5% glycerol, 0.1 mg/mL BSA, 2 mM DTT; 25 C; 0.0125-409.6 nM protein
Conditions: tags: N-His6-TEV cleaved; C-SNAP kept, Cy3B-labelled; label: tethered on chip by stalled RNA polymerase
Entry type: numeric. Quantity: pKd, the -log10 of concentration in molar units.

Binder	pKd
Id_ii_S2_P4E.2_K4.1_C4.2_[C-2T]_H4.1_A4.1_F4.1_T4.2_[G10A] (ssRNA) RNA: UUUGAUUAAUAUGAUAUCGUUCUUUCUUUUGUAUAUUAAUUUCUUUCUCGAUAUCAUAUUAAUCUUU	9.39
UCUCUUCAUAUAUAUACGUCUCUU (ssRNA) [Id_ii_S1_P3E.3_K3.2_C3.2_[T-1A]_H3.2_A3.1_F3.1_T3.2_[T9C]_[A10G]]	5.95
Ie_S2_P5E.1_K5.1_C5.1_H5.1_A5.1_F5.1_[+10TTC]_T5.1 (ssRNA) RNA: UUUGAUUAAUAUGAUAUCGUUCUUUCUUGUAUUAUUAUUCUUCUUUCUCGAUAUCAUAUUAAUCUUU	8.70
Id_ii_S2_P4E.4_K4.3_C4.2_[C-2A]_H4.3_A4.1_F4.1_T4.2_[G10C] (ssRNA) RNA: UUUGAUUAAUAUGAUAUCGUUCUUUCUAUACACUAUUACUUUCUUUCUCGAUAUCAUAUUAAUCUUU	8.04
UCUCUUUGUAGCAUUAUCUCUU (ssRNA) [Ib_S1_P5E.1_K5.1_C5.1_H5.1_A5.1_[T5G]_[T6C]_F5.1_T5.1]	7.81

Query: Name the recorded pKd of the binder listed here: UCUCUUUGUACAGCGUCUCUU (ssRNA) [Ic_S1_P4E.1_K4.1_C4.1_H4.1_A4.1_[T5C]_[T7G]_F4.1_[T8C]_[A9G]_T4.1]
Result: 6.95

Query: Name the recorded pKd of the binder listed here: Ie_S2_P3E.2_K3.1_C3.2_H3.1_[+4CCCTT]_A3.1_F3.1_T3.2 (ssRNA) RNA: UUUGAUUAAUAUGAUAUCGUUCUUUCUCUUGUACCCUUUAUAUAUUCUUUCUCGAUAUCAUAUUAAUCUUU
Result: 8.22

Query: Name the recorded pKd of the binder listed here: UCUCUUUUACACUAUACAUCUCUU (ssRNA) [Id_ii_S1_P3E.4_K3.3_C3.2_[C-2T]_H3.3_A3.1_F3.1_T3.2_[T9C]]
Result: 5.94

Query: Name the recorded pKd of the binder listed here: UCUCUUUGUAAAUUCUCUCUU (ssRNA) [Ib_S1_P4E.1_K4.1_C4.1_H4.1_A4.1_[T5A]_F4.1_[A9C]_T4.1]
Result: 7.58

Query: Name the recorded pKd of the binder listed here: Id_ii_S4_P3E.3_K3.2_C3.2_[C-2A]_[T-1A]_H3.2_A3.1_F3.1_T3.2_[T9A]_[A10C] (ssRNA) RNA: UUUGACAACUGAUCGUUCUUUCUAAUAUAUAUAACUUCUUUCUCGAUCAGUUGUCUUU
Result: 6.35
